Assay: Ticagrelor-ketoconazole interaction study: pharmacokinetic parameters of ticagrelor and AR-C124910XX
Conditions: human, plasma, po, 90 mg
Protocol: Both studies were single-center, randomized, open-label studies with a two-period, in-patient, crossover design. […] The limits of quantification (LOQ) for ticagrelor and AR-C124910XX were […], respectively28. Plasma concentration–time data were used to calculate Cmax, time to maximum concentration (tmax), AUC, and the terminal elimination half-life (t½). […] AUC was calculated using the linear trapezoidal method and extrapolated to infinity. […]

{"columns": ["lineNotation", "Cmax"],
 "data": [
  ["CCCSc1nc(N[C@@H]2C[C@H]2c2ccc(F)c(F)c2)c2nnn([C@@H]3C[C@H](OCCO)[C@@H](O)[C@H]3O)c2n1", "654 ng/mL"]
]}

Data origin, for the record: paper PMC4937655
